- System: HOP-62, NSCLC tumor
- assay.explanation: Apoptosis induction against solid tumors in vitro, HOP-62
- Assay type: cell-based
- measurement.conditions: Homo sapiens; Table 21
Property: EC50; scope: individual compounds
Give your result in µM as a bare value.

| compound | observed |
| --- | --- |
| O=[N+]([O-])c1cccc(/C=N/Nc2ccc3ccccc3n2)c1O [FH297] | 2.7 |
| Oc1c(Br)cc(Cl)cc1/C=N/Nc1ccc(C(F)(F)F)cn1 [FH096] | 19.1 |
| O=[N+]([O-])c1ccc(O)c(/C=N/Nc2nccc3ccccc23)c1O [FH314] | 17.5 |

In: Suppose we examine the compound Oc1c(Cl)cc(Cl)cc1/C=N/Nc1ccc(C(F)(F)F)cn1 [FH092] ; what EC50 value has been reported?
Out: 8.3

----------
Property: pEC50; scope: individual compounds
- System: TAMH cells transfected with Neo vector (Neo)
- assay.explanation: Cytotoxicity / apoptosis induction in TAMH cells transfected with Neo vector
- Type: cell-based
- measurement.conditions: Table 3; TAMH Neo cells; read-out: Neo EC50
Please report pEC50 as the negative decimal logarithm of the molar concentration, giving only the number.

Use these answered entries as a reference point.
| compound | pEC50 |
| --- | --- |
| COc1cc(Br)cc(/C=N/Nc2ccc(C(F)(F)F)cc2)c1O [Compound 0333] | 4.57 |
| CC(C)(C)c1cc(Br)c(O)c(/C=N/Nc2ccccn2)c1 [Compound 0401] | 4.39 |
| O=C(/N=C/c1cc(Br)cc(Br)c1O)c1ccc(C(F)(F)F)cn1 [Compound 0298] | 4.89 |

With those in mind, consider the next compound.
In: Suppose we examine the compound COc1c(Cl)cc(/C=N/Nc2ccccn2)c(O)c1Br [Compound 0355] ; what pEC50 value has been reported?
Out: 4.48

----------
- Tested on: TAMH cells over expressing a variant of Bcl-xL (A142L)
- assay.explanation: Cytotoxicity / apoptosis induction in TAMH cells over expressing Bcl-xL variant A142L
- Format: cell-based
- measurement.conditions: Table 4; ratio of TAMH cells expressing Bcl-xL to those expressing A142L
We label by threshold. Values of WT:142L strictly beneath 3 are label 1. Values of 3 and up are label 0.

| compound | study.system | label |
| --- | --- | --- |
| CC(C)(C)c1cc(Br)c(O)c(/C=N/Nc2ccccn2)c1 [Compound 0401] | TAMH cells over expressing a variant of Bcl-xL (A142L) | label 1 |

In: Here's an entry: COc1cc(Br)cc(/C=N/Nc2ccc(C(F)(F)F)cc2)c1O [Compound 0333] . Is its WT:142L below 3?
Out: label 0

In: Here's an entry: COc1cc(Br)c(O)c(/C=N/NC(=O)c2ccccc2)c1 [Compound 0283] . Is its WT:142L below 3?
Out: label 0

In: Here's an entry: Oc1c(Br)cc(Cl)cc1/C=N/Nc1ccc(C(F)(F)F)cn1 [Compound 0239] . Is its WT:142L below 3?
Out: label 0

In: Here's an entry: O=[N+]([O-])c1cccc(/C=N/Nc2ccccn2)c1O [Compound 0208] . Is its WT:142L below 3?
Out: label 1

In: Here's an entry: COc1cc(O)c(/C=N/Nc2ccccn2)cc1Br [Compound 0351] . Is its WT:142L below 3?
Out: label 1

In: Here's an entry: Oc1c(Cl)cc(Cl)cc1/C=N/Nc1ccc(C(F)(F)F)cn1 [Compound 0235] . Is its WT:142L below 3?
Out: label 1

----------
Property: EC50; scope: individual compounds
- Test system: TAMH cells overexpressing Bcl-xL (TAMH-Bcl-xL, Tabx2s)
- assay.explanation: Cytotoxicity / apoptosis induction in TAMH cells overexpressing Bcl-xL
- Assay type: cell-based
- measurement.conditions: Table 6; TAMH cells overexpressing Bcl-xL (Tabx2s); read-out: 2S EC50
Give your result in µM as a bare value.

In: Suppose we examine the compound O=[N+]([O-])c1ccc(S(=O)(=O)c2ccccc2)c2nonc12 ; what EC50 value has been reported?
Out: 7.6

In: Suppose we examine the compound O=C(/N=C/c1cc(Br)cc(Br)c1O)c1ccccc1 ; what EC50 value has been reported?
Out: 0.5

----------
- Test system: TAMH cells transfected with Neo vector (Neo)
- assay.explanation: Cytotoxicity / apoptosis induction in TAMH cells transfected with Neo vector
- Format: cell-based
- measurement.conditions: Table 3; TAMH Neo cells; read-out: Neo EC50
Property: EC50; scope: individual compounds

In: Suppose we examine the compound Oc1ccc(Br)cc1/C=N/Nc1ccccn1 [Compound 0241] ; what EC50 value has been reported?
Out: ≥ 50 µM

In: Suppose we examine the compound CC(C)(C)c1cc(O)c(/C=N/Nc2ccccn2)cc1Br [Compound 0353] ; what EC50 value has been reported?
Out: 10 µM

In: Suppose we examine the compound Oc1c(Br)cc(Cl)cc1/C=N/Nc1ccc(C(F)(F)F)cn1 [Compound 0275] ; what EC50 value has been reported?
Out: 9.9 µM

----------
- Test system: TAMH cells overexpressing Bcl-xL (TAMH-Bcl-xL, Tabx2s)
- assay.explanation: Cytotoxicity / apoptosis induction in TAMH cells overexpressing Bcl-xL
- Assay type: cell-based
- measurement.conditions: Table 4; TAMH-Bcl-xL cells; read-out: Bcl-xL
We label by threshold. Values of EC50 strictly beneath 4 µM are satisfied. Values of 4 µM and up are not satisfied.

In: Here's an entry: COc1cc(Br)c(O)c(/C=N/NC(=O)c2ccccc2)c1 . Is its EC50 below 4 µM?
Out: satisfied

In: Here's an entry: CC(C)(C)c1cc(Br)c(O)c(/C=N/Nc2ccccn2)c1 . Is its EC50 below 4 µM?
Out: not satisfied

In: Here's an entry: O=[N+]([O-])c1cccc(/C=N/Nc2ccccn2)c1O . Is its EC50 below 4 µM?
Out: not satisfied

----------
- System: TAMH cells over expressing a variant of Bcl-xL (A142L)
- assay.explanation: Cytotoxicity / apoptosis induction in TAMH cells over expressing Bcl-xL variant A142L
- Format: cell-based
- measurement.conditions: Table 4; TAMH A142L cells
measurement.kind: pEC50
Please report pEC50 as the negative decimal logarithm of the molar concentration, giving only the number.

Use these answered entries as a reference point.
| compound | study.system | pEC50 |
| --- | --- | --- |
| Oc1c(Br)cc(Cl)cc1/C=N/Nc1ccc(C(F)(F)F)cn1 [Compound 0239] | TAMH cells over expressing a variant of Bcl-xL (A142L) | 4.88 |
| Oc1c(Cl)cc(Cl)cc1/C=N/Nc1ccc(C(F)(F)F)cn1 [Compound 0235] | TAMH cells over expressing a variant of Bcl-xL (A142L) | 5.07 |
| O=[N+]([O-])c1cccc(/C=N/Nc2ccccn2)c1O [Compound 0208] | TAMH cells over expressing a variant of Bcl-xL (A142L) | 5.01 |

In: Give the reported pEC50 for COc1cc(Br)cc(/C=N/Nc2ccc(C(F)(F)F)cc2)c1O [Compound 0333] (system: TAMH cells over expressing a variant of Bcl-xL (A142L)).
Out: 4.65

----------
- assay.explanation: Log P
measurement.kind: logP

In: Suppose we examine the molecule CC(C)(C)c1ccc(Cc2ccc(Cl)cc2Cl)cc1 ; what logP value has been reported?
Out: 6.28

----------
- Tested on: TAMH cells overexpressing Bcl-xL (TAMH-Bcl-xL, Tabx2s)
- assay.explanation: Cytotoxicity / apoptosis induction in TAMH cells overexpressing Bcl-xL
- Type: cell-based
- measurement.conditions: Table 13
- Protocol: To examine the sensitivity of cells over-expressing Bcl-xL to various mitochondrial inhibitors and apoptosis inducers, cell lines over-expressing Bcl-xL were prepared and tested according to Hockenberry et al. U.S. Pat. No. 7,241,804, hereby incorporated by reference in its entirety. […] Competitive binding of compounds with BH-3 peptide were also measured using Bcl-xL as previously described. […]
Property: Fold Select. (Neo/Bcl-xL); scope: individual molecules
Answer with a number only.

| molecule.smiles | study.system | Fold Select. (Neo/Bcl-xL) |
| --- | --- | --- |
| Oc1ccc(Cl)cc1Cc1cc(Cl)cc(Cc2cc(Cl)ccc2O)c1O | TAMH cells overexpressing Bcl-xL (TAMH-Bcl-xL, Tabx2s) | 7 |
| CC(=O)c1cc(Cl)cc(Cc2cc(Cl)cc(Cc3cc(Cl)cc(C(C)=O)c3O)c2O)c1O | TAMH cells overexpressing Bcl-xL (TAMH-Bcl-xL, Tabx2s) | 8.1 |
| Cc1cc(Cc2cc(Cc3cc(C)cc(C(C)(C)C)c3O)c(C)cc2C)c(O)c(C(C)(C)C)c1 | TAMH cells overexpressing Bcl-xL (TAMH-Bcl-xL, Tabx2s) | −0 |
| CC(=O)c1cc(Cc2cc(C)cc(C)c2O)c(O)c(Cc2cc(C)cc(C)c2O)c1 | TAMH cells overexpressing Bcl-xL (TAMH-Bcl-xL, Tabx2s) | 0 |
| OCc1cc(Cl)cc(Cc2cc(Cl)cc(Cc3cc(Cl)cc(CO)c3O)c2O)c1O | TAMH cells overexpressing Bcl-xL (TAMH-Bcl-xL, Tabx2s) | 2.5 |

In: Suppose we examine the molecule Cc1cc(C)c(O)c(Cc2cc(Cl)cc(Cc3cc(C)cc(C)c3O)c2O)c1 ; what Fold Select. (Neo/Bcl-xL) value has been reported?
Out: 4

In: Suppose we examine the molecule Oc1c(CCl)cc(Cl)cc1Cc1cc(Cl)cc(Cc2cc(Cl)cc(CCl)c2O)c1O ; what Fold Select. (Neo/Bcl-xL) value has been reported?
Out: 9.3

In: Suppose we examine the molecule Cc1cc(C)c(O)c(Cc2cccc(Cc3cc(C)cc(C)c3O)c2O)c1 ; what Fold Select. (Neo/Bcl-xL) value has been reported?
Out: 0

In: Suppose we examine the molecule Cc1cc(C(C)(C)C)cc(Cc2cc(C(C)(C)C)cc(Cc3cc(C(C)(C)C)cc(C)c3O)c2O)c1O ; what Fold Select. (Neo/Bcl-xL) value has been reported?
Out: 6.4
